Molecular target: Phosphatidylinositol 4,5-bisphosphate 3-kinase catalytic subunit delta isoform (Homo sapiens)
Sequence (O00329 whole entry): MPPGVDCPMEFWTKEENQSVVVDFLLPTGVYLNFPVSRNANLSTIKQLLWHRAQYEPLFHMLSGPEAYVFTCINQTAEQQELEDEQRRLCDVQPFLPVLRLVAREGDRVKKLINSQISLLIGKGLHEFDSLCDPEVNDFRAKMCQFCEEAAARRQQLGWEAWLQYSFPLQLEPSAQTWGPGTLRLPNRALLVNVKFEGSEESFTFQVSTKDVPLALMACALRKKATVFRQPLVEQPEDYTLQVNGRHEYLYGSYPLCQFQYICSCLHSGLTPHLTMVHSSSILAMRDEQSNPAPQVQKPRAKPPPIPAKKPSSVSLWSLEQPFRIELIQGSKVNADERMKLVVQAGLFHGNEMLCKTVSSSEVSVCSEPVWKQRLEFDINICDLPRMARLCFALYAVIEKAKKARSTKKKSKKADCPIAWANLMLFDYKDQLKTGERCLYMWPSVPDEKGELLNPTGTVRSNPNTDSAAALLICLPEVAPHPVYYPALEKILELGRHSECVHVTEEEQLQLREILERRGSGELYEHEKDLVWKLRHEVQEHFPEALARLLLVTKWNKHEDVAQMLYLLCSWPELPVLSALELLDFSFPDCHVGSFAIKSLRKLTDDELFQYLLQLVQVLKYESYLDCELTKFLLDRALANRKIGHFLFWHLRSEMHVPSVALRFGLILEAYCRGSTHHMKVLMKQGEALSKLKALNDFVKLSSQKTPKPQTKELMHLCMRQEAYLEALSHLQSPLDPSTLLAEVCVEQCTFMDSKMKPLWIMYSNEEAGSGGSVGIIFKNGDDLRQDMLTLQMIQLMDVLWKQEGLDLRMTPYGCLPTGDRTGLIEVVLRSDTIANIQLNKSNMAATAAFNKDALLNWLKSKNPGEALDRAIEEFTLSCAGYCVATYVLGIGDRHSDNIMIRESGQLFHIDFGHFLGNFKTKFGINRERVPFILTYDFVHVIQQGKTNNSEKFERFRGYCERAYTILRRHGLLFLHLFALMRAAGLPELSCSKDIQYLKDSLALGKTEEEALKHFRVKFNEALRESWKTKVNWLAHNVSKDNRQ
Assay: Inhibition of PI3Kdelta (unknown origin) using PIP2 as substrate preincubated for 15 mins followed by substrate addition and measured after 1 hr by HTRF assay
metric.name: IC50 (µM)
Kindly provide the numeric value in µM only, without the unit symbol.

CCNC(=O)Nc1ccc(-c2nc(C(C)(C)S(C)(=O)=O)cc([C@@]34CCOC[C@@H]3C4)n2)cc1 :: 15.8
CS(=O)(=O)Cc1cc(C2=CCOCC2)nc(-c2cccc(O)c2)n1 :: 1.58
CS(=O)(=O)Cc1cc([C@]23CCOC[C@H]2C3)nc(-c2cccc(O)c2)n1 :: 15.8
CCNC(=O)Nc1ccc(-c2nccc(N3CCOC[C@@H]3C)n2)cc1 :: 5.01

Please examine the following record next.
Need IC50, item CCNC(=O)Nc1ccc(-c2nc(CS(C)(=O)=O)cc([C@@]34CCOC[C@@H]3C4)n2)cc1
25.1

###

assay: Intrinsic clearance in rat microsomes; type: ADME, Microsome
metric.name: CL (mL/min/g)
Kindly provide the numeric value in mL/min/g only, without the unit symbol.

Need CL, item CCNC(=O)Nc1ccc(-c2nccc([C@@]34CCOC[C@@H]3C4)n2)cc1
16.7
